# target.under.test: BSA (UniProt P02769)
# Sequence (P02769 25-607 limits assumed): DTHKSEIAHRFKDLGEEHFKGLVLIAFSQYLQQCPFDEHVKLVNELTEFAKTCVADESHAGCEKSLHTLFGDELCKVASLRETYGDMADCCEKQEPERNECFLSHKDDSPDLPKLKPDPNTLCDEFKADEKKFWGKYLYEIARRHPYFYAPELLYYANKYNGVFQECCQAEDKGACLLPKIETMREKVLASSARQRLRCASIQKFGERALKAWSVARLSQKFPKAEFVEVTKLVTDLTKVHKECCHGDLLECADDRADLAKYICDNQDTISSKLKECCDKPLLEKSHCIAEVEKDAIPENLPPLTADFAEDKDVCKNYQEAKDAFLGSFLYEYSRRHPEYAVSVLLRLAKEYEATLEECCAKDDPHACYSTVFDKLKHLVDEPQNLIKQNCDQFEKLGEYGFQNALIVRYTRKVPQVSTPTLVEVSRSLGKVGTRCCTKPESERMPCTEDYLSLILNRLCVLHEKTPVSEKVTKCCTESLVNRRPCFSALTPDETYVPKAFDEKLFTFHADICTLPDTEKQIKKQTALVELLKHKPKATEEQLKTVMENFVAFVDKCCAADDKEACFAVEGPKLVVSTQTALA
# method.summary: ELISA on coated BSA control, anti-myc detection; 200ng antibody added
Mark not met for OD450 nm values under 0.05 OD450, and met for everything at or above.

Known results for binders:
anti-CD79B single-domain antibody JYB11 (VHH, Alpaca VHH from a phage library; ELISA detected with an anti-myc antibody; a myc tag is not described; not shown: His-tag protein at the C-terminal end) VHH: DVQLQESGGGLVQPGGSLSLSCAASMSSPSLWVRAWHRQAPGKQRELVAAINSDGQTMYADSVKGRFTISRDNAKTLVSLQMDSLKPEDTAVYYCNVVTPRGQQYWGQGTQVTVSS = not met
anti-CD79B single-domain antibody JYB8 (VHH, not shown: small tags and cut ends) VHH: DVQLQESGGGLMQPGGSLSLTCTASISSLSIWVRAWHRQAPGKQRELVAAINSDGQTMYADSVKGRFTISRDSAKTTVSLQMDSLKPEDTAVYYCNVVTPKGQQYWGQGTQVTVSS = met

Turning now to a further binder:
Tell me whether OD450 nm is at least 0.05 OD450 here: anti-CD79B single-domain antibody JYB10 (VHH, Alpaca VHH from a phage library; ELISA detected with an anti-myc antibody; a myc tag is not described; not shown: His-tag protein at the C-terminal end) VHH: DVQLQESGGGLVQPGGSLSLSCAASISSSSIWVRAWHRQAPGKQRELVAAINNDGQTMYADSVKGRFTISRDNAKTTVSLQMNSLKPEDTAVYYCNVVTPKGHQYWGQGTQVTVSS
not met
